Let's look at some binders and their measured pKd.
Assay System: DDE
Assay Info: direct binding fluorescence polarization: CF5-labeled peptide titrated with DDE; n = 2
pKd: −log10 of the molar value. Bridge positions count the residues as written; N and C are the ends. Square brackets hold non-standard residues; d marks the D form. Ends that are not written are not given here. Cha = N[C@@H](CC1CCCCC1)C(=O)O; CF5 = 5-carboxyfluorescein

Binder: RGWQPCPAESWT[Cha]CWDPGGGK(CF5)-NH2 (disulfide 6-14) [Seq054-CF5]
pKd: 7.30
--
Binder: Ac-WQPCPWESWT[Cha]CWDPGGGK(CF5)-NH2 (disulfide 4-12) [Seq018-CF5]
pKd: 6.70
--
Binder: Ac-GWQPCPAESWT[Cha]CWDPGGGK(CF5)-NH2 (disulfide 5-13) [Seq055-CF5]
pKd: 7.10
